Test system: 407 cancer cell lines
Assay: Cell viability of cancer cell lines (IC50), CellTiter-Glo Viability Assay, 96 h
Assay type: cell-based
Settings: Homo sapiens, SU-DHL-1, SU-DHL-1; read-out: Absolute IC50
Attribute Measured: IC50 (nM)

1. Cc1nn(-c2nc(-c3ccc(C(F)(F)F)cc3)c(SC(C)C)s2)c(C(=O)O)c1-c1cccc(F)c1 :: 330

* * *

Test system: 407 cancer cell lines
Experiment: Cell viability of cancer cell lines (IC50), CellTiter-Glo Viability Assay, 96 h
Assay type: cell-based
Settings: Homo sapiens, MES-SA, 96 h, MES-SA cells, 96 h; read-out: Absolute IC50
Attribute Measured: IC50 (nM)

1. Cc1nn(-c2nc(-c3ccc(C(F)(F)F)cc3)c(SC(C)C)s2)c(C(=O)O)c1-c1cccc(F)c1 :: 490

* * *

Tested on: 407 cancer cell lines
Assay: Cell viability of cancer cell lines (IC50), CellTiter-Glo Viability Assay, 96 h
Assay type: cell-based
Settings: IHH-4 cells, 96 h; read-out: Absolute IC50
Attribute Measured: IC50 (nM)

1) N.N.[Cl][Pt][Cl] [Cisplatin, reference compound] :: 2650

* * *

Tested on: 407 cancer cell lines
Assay: Cell viability of cancer cell lines (IC50), CellTiter-Glo Viability Assay, 96 h
Type: cell-based
Details: Homo sapiens, NCI-H226, NCI-H226; read-out: Absolute IC50
Attribute Measured: IC50 (nM)

1. Cc1nn(-c2nc(-c3ccc(C(F)(F)F)cc3)c(SC(C)C)s2)c(C(=O)O)c1-c1cccc(F)c1 :: 2080

* * *

Tested on: 407 cancer cell lines
Assay: Cell viability of cancer cell lines (IC50), CellTiter-Glo Viability Assay, 96 h
Assay type: cell-based
Conditions: Daudi cells, 96 h; read-out: Absolute IC50
pIC50: −log10 of the molar value.
Attribute Measured: pIC50

1) N.N.[Cl][Pt][Cl] [Cisplatin, reference compound] :: 6.68

* * *

System: 407 cancer cell lines
Test: Cell viability of cancer cell lines (IC50), CellTiter-Glo Viability Assay, 96 h
Format: cell-based
Settings: Homo sapiens, PC-9, 96 h, PC-9 cells, 96 h; read-out: Absolute IC50
Attribute Measured: IC50

1) Cc1nn(-c2nc(-c3ccc(C(F)(F)F)cc3)c(SC(C)C)s2)c(C(=O)O)c1-c1cccc(F)c1 :: 1.11 µM

* * *

Test system: 407 cancer cell lines
Assay: Cell viability of cancer cell lines (IC50), CellTiter-Glo Viability Assay, 96 h
Format: cell-based
Details: Homo sapiens, IMR-32, 96 h, IMR-32 cells, 96 h; read-out: Absolute IC50
pIC50: −log10 of the molar value.
Attribute Measured: pIC50

1) Cc1nn(-c2nc(-c3ccc(C(F)(F)F)cc3)c(SC(C)C)s2)c(C(=O)O)c1-c1cccc(F)c1 [Compound A197] :: 6.10

* * *

Test system: 406 cancer cell lines, 73 blood tumor cell lines and 333 solid tumor cell lines
Test: OmniScreen drug efficacy on cancer cell lines, fitted area under curve (AUC) of dose-response
Assay type: cell-based
Conditions: Homo sapiens, HEC-1B, HEC-1-B, Uterus
pIC50: −log10 of the molar value.
Attribute Measured: pIC50

1) Cc1nn(-c2nc(-c3ccc(C(F)(F)F)cc3)c(SC(C)C)s2)c(C(=O)O)c1-c1cccc(F)c1 :: 6.36

* * *

Tested on: 407 cancer cell lines
Experiment: Cell viability of cancer cell lines (IC50), CellTiter-Glo Viability Assay, 96 h
Type: cell-based
Conditions: RPMI 8226 cells, 96 h; read-out: Absolute IC50
pIC50: −log10 of the molar value.
Attribute Measured: pIC50

1) N.N.[Cl][Pt][Cl] [Cisplatin, reference compound] :: 5.39
